Test system: SAU 29213
Assay: MIC, broth microdilution (CLSI), substance alone or ATB combined with compound at 4 or 8 μg/mL
Type: cell-based, S. aureus
Conditions: ATB PIP; compound @8 μg/ml; SAU 29213
Experimental: Compounds of the present invention were assessed against genotyped bacterial strains alone or in combination with an antibacterial. In the assays, MICs of said compounds or combination of antibiotics with fixed concentrations of said compounds (4 or 8 μg/mL) were determined by the broth microdilution method according to the Clinical Laboratory Standards Institute (CLSI-M7-A7). […]
Hi there, I'd appreciate the recorded MIC ATB combined with compound for every entry that follows.
One number for each entry, in µg/mL.

The examples below pair each entry with its known result.
molecule: NC[C@H]1C=C(c2cnco2)[C@@H]2CN1C(=O)N2OS(=O)(=O)[O-].O=C(O)C(F)(F)F.[Na+] (relative stereo)
MIC ATB combined with compound (µg/mL): 5
//
molecule: O=C(O)C(F)(F)F.O=C1N2C[C@H](c3scnc3[C@H]2c2ncc[nH]2)N1OS(=O)(=O)[O-].[Na+] (relative stereo)
MIC ATB combined with compound (µg/mL): 0.063
//
molecule: O=C1N2CC(c3ncco3)=CC(C2)N1OC(F)(F)C(=O)O (centres unmarked)
MIC ATB combined with compound (µg/mL): 1

Please turn your attention to the following entry.
Determine from records and report MIC ATB combined with compound for NCCn1c2c(sc1=O)C1CN(C2)C(=O)N1OS(=O)(=O)[O-].[Na+] (centres unmarked)
0.5
